Hello, the source for this data is patent US20090269346A1, in case you need it.

- study-system: T1, LRP1 CR3-5 (human)
- T1 construct: range 852-973; Amplified from human cDNA; also called L1 CR3-5
- T1 sequence (Q07954 852-973): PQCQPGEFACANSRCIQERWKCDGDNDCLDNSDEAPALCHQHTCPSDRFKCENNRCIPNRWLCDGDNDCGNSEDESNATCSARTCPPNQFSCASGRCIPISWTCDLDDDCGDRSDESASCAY
- assay-details: solid-phase assay, coated CR protein, anti-RAP, OD450
measure-name: % max (percent of maximum binding) (%)
# number only, unit % dropped from output

Observe how each entry below is paired with its result.
RAP d3 E251K (ligand, forward mutant of wild-type RAP d3; also called RAP E251K; not shown: vector-encoded N-terminal tags of pET30(+)a) LDRLRRVSHQGYSTEAEFEEPRVIDLWDLEQSANLTDKELEAFREELKHFKAKIEKHNHYQKQLEIAHEKLRHAESVGDGERVSRSREKHALLEGRTKELGYTVKKHLQDLSGRISRAR; 100
wild-type RAP d3 (ligand, expressed in E. coli from pET30(+)a; not shown: vector-encoded N-terminal tags of pET30(+)a (hexahistidine and S-peptide, as stated for the CR constructs)) LDRLRRVSHQGYSTEAEFEEPRVIDLWDLEQSANLTDKELEAFREELKHFEAKIEKHNHYQKQLEIAHEKLRHAESVGDGERVSRSREKHALLEGRTKELGYTVKKHLQDLSGRISRAR; 76
RAP d3 H249Y (ligand, forward mutant of wild-type RAP d3; also called RAP H249Y; not shown: vector-encoded N-terminal tags of pET30(+)a) LDRLRRVSHQGYSTEAEFEEPRVIDLWDLEQSANLTDKELEAFREELKYFEAKIEKHNHYQKQLEIAHEKLRHAESVGDGERVSRSREKHALLEGRTKELGYTVKKHLQDLSGRISRAR; 90
RAP d3 K270E (ligand, forward mutant of wild-type RAP d3; also called RAP K270E; not shown: vector-encoded N-terminal tags of pET30(+)a) LDRLRRVSHQGYSTEAEFEEPRVIDLWDLEQSANLTDKELEAFREELKHFEAKIEKHNHYQKQLEIAHEELRHAESVGDGERVSRSREKHALLEGRTKELGYTVKKHLQDLSGRISRAR; 4
RAP d3 E217K (ligand, forward mutant of wild-type RAP d3; also called RAP E217K; not shown: vector-encoded N-terminal tags of pET30(+)a) LDRLRRVSHQGYSTEAKFEEPRVIDLWDLEQSANLTDKELEAFREELKHFEAKIEKHNHYQKQLEIAHEKLRHAESVGDGERVSRSREKHALLEGRTKELGYTVKKHLQDLSGRISRAR; 91
RAP d3 E251K, K256A, K270E (ligand, forward mutant of wild-type RAP d3; also called RAP E251K, K256A, K270E; not shown: vector-encoded N-terminal tags of pET30(+)a) LDRLRRVSHQGYSTEAEFEEPRVIDLWDLEQSANLTDKELEAFREELKHFKAKIEAHNHYQKQLEIAHEELRHAESVGDGERVSRSREKHALLEGRTKELGYTVKKHLQDLSGRISRAR; 2

IN: Which % max (percent of maximum binding) reading was recorded for the binder RAP d3 K256A, K270E (ligand, forward mutant of wild-type RAP d3; also called RAP K256A, K270E; not shown: vector-encoded N-terminal tags of pET30(+)a) LDRLRRVSHQGYSTEAEFEEPRVIDLWDLEQSANLTDKELEAFREELKHFEAKIEAHNHYQKQLEIAHEELRHAESVGDGERVSRSREKHALLEGRTKELGYTVKKHLQDLSGRISRAR ?
OUT: 2

IN: Param item = RAP d3 E251K, K270E (ligand, forward mutant of wild-type RAP d3; also called RAP E251K, K270E; not shown: vector-encoded N-terminal tags of pET30(+)a) LDRLRRVSHQGYSTEAEFEEPRVIDLWDLEQSANLTDKELEAFREELKHFKAKIEKHNHYQKQLEIAHEELRHAESVGDGERVSRSREKHALLEGRTKELGYTVKKHLQDLSGRISRAR ; retrieve measured % max (percent of maximum binding).
OUT: 4
